Target: T1, 4H2274-AA
T1 chain: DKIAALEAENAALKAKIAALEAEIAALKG
Assay: two-hybrid library CCmax;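 also: natural log of median RNA to DNA barcode read ratio; higher means stronger binding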
Conditions: mean of both orientations
Assign interaction score to each entry below.
API note: the answer field is a bare number with no unit suffix.

Query: interaction score; subject: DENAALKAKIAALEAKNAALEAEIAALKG [4H1842-AA]
-1.6

Value lookup for interaction score; key = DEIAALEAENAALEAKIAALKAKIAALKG [4H174-AA]
1.3

Report interaction score for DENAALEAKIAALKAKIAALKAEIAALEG [4H1385-AA] please.
-0.953

Give the measured interaction score of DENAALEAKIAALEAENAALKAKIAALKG [4H1310-AA] .
-1.15

Given the entry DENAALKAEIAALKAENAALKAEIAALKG [4H1626-AA] , report its measured interaction score.
-1.5

Quick one: interaction score of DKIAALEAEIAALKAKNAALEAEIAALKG [4H2162-AA] ?
-0.925

Quick one: interaction score for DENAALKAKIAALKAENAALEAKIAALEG [4H1877-AA] ?
-1.35

What interaction score value was documented for this binder, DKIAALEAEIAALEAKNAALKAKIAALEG [4H2109-AA] ?
-1.47

Reported interaction score, binder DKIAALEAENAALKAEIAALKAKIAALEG [4H2253-AA] : ____
-0.65

interaction score lookup needed for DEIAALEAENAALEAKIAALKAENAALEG [4H171-AA] , thanks.
-1.17
